Biological target: BCL6 (Homo sapiens (Human), UniProt P41182)
Test: Immunofluorescence high content imaging of BCL6 degradation in T47D cells
Format: cell-based
Conditions: class symbols A-D, read-out: EC50 (nM)*
Each record here notes measured DC50.
METRIC NAME: DC50

| MOLECULE | MEASUREMENT |
| --- | --- |
| CNC(=O)COc1cc2cc(Nc3nc(N4CCC(OCCOCCOCCCOc5ccc6c(c5)CN(C5CCC(=O)NC5=O)C6=O)CC4)ncc3Cl)ccc2n(C)c1=O (stereo not drawn) | > 100 nM |
| CNC(=O)COc1cc2cc(Nc3nc(N4CCC(OCCN5CCC(N6CCC(OCC#Cc7ccc8c(c7)CN(C7CCC(=O)NC7=O)C8=O)CC6)CC5)CC4)ncc3Cl)ccc2n(C)c1=O (stereo not drawn) | 10 to 50 nM |
| O=C1CCC(N2C(=O)c3ccc(N4CCN(CC5CCN(c6cc(Nc7ccc8c(c7)CCC(=O)N8)c(Cl)cc6[N+](=O)[O-])CC5)CC4)cc3C2=O)C(=O)N1 (stereo not drawn) | > 100 nM |

###

Target: BCL6 (Homo sapiens (Human), UniProt P41182)
Assay: Immunofluorescence high content imaging of BCL6 degradation in T47D cells
Format: cell-based
Settings: class symbols A-D, read-out: EC50 (nM)*
Each record here notes measured DC50.

| COMPOUND | ASSAY TARGET | DC50 |
| --- | --- | --- |
| CNC(=O)COc1cc2cc(Nc3nc(N4CCC(c5cccc(OCCOCCOCCOCCOc6ccc7c(c6)CN(C6CCC(=O)NC6=O)C7=O)c5)CC4)ncc3Cl)ccc2n(C)c1=O (centres unmarked) | BCL6 (Homo sapiens (Human), UniProt P41182) | 10 to 50 nM |
| CNC(=O)COc1cc2cc(Nc3nc(N4CCC(OCCCOc5cc(-c6scnc6C)ccc5CNC(=O)[C@@H]5C[C@@H](O)CN5C(=O)C(c5cc(C)no5)C(C)C)CC4)ncc3Cl)ccc2n(C)c1=O (some centres unmarked) | BCL6 (Homo sapiens (Human), UniProt P41182) | > 100 nM |
| CNC(=O)COc1cc2cc(Nc3nc(N4CCC(OCCOCCOCCOCCOCCOCCOc5ccc6c(c5)CN(C5CCC(=O)NC5=O)C6=O)CC4)ncc3Cl)ccc2n(C)c1=O (centres unmarked) | BCL6 (Homo sapiens (Human), UniProt P41182) | > 100 nM |
| CNC(=O)COc1cc2cc(Nc3nc(N4CCC(c5cn(CCOCCOCCOCCOCCOc6ccc7c(c6)C(=O)N(C6CCC(=O)NC6=O)C7=O)nn5)CC4)ncc3Cl)ccc2n(C)c1=O (centres unmarked) | BCL6 (Homo sapiens (Human), UniProt P41182) | 50 to 100 nM |
| CNC(=O)COc1cc2cc(Nc3nc(N4CCC(OCCOCCOCCOCCOCCOc5ccc6c(c5)CN(C5CCC(=O)NC5=O)C6=O)CC4)ncc3Cl)ccc2n(C)c1=O (centres unmarked) | BCL6 (Homo sapiens (Human), UniProt P41182) | > 100 nM |

###

Each record here notes measured IC50.
Target: BCL6 (Homo sapiens (Human))
Test: BCL6 TR-FRET assay (BCL6-Avitag-Biotin / BCoR-Cy5 peptide)
Type: binding
Conditions: class symbols A-D; read-out: IC50 (nM)***

| COMPOUND | IC50 |
| --- | --- |
| CNC(=O)/C=C/c1cc2cc(Nc3nc(N4CCC(CN5CCN(c6ccc7c(c6)C(=O)N(C6CCC(=O)NC6=O)C7=O)CC5)CC4)ncc3Cl)ccc2n(C)c1=O (stereo not drawn) | 10 to 50 nM |
| CC(=O)COc1cc2cc(Nc3nc(N4CCN(C5CCN(c6ccc7c(c6)C(=O)N(C6CCC(=O)NC6=O)C7=O)CC5)CC4)ncc3Cl)ccc2n(C)c1=O (stereo not drawn) | 10 to 50 nM |
| CC(=O)COc1cc2cc(Nc3nc(N4CCC(N(C)C5CCN(c6ccc7c(c6)C(=O)N(C6CCC(=O)NC6=O)C7=O)CC5)CC4)ncc3Cl)ccc2n(C)c1=O (stereo not drawn) | 10 to 50 nM |

###

Each record here notes measured EC50.
Target: BCL6 (Homo sapiens (Human))
Experiment: BCL6 TR-FRET assay (BCL6-Avitag-Biotin / BCoR-Cy5 peptide)
Assay type: binding

| COMPOUND | EC50 |
| --- | --- |
| CNC(=O)C1Oc2cc(Nc3nc(N4CCN(C(C)(C)C5CCN(c6ccc7c(c6)C(=O)N(C6CCC(=O)NC6=O)C7=O)CC5)CC4)ncc3Cl)ccc2N(C)C1=O (centres unmarked) | > 100 nM |
| CNC(=O)[C@@H](C)Oc1cc2cc(Nc3nc(N4CCC(CN5CCN(c6ccc7c(c6)C(=O)N([C@H]6CCC(=O)NC6=O)C7=O)CC5)CC4)ncc3Cl)ccc2n(C)c1=O | 10 to 50 nM |
| Cn1c(=O)c(OC2COC2)cc2cc(Nc3nc(N4CCC(CN5CCN(c6ccc7c(c6)C(=O)N(C6CCC(=O)NC6=O)C7=O)CC5)CC4)ncc3Cl)ccc21 (centres unmarked) | > 100 nM |
| CNC(=O)COc1cc2cc(Nc3nc(N4CCOC(CN5CCN(c6cccc7c6C(=O)N(C6CCC(=O)NC6=O)C7=O)CC5)C4)ncc3Cl)ccc2n(C)c1=O (centres unmarked) | 10 to 50 nM |
| CC(=O)[C@@H](C)Oc1cc2cc(Nc3nc(N4CCC(CN5CCN(c6ccc7c(c6)C(=O)N([C@H]6CCC(=O)NC6=O)C7=O)CC5)CC4)ncc3Cl)ccc2n(C)c1=O | > 100 nM |

###

Target: BCL6 (Homo sapiens (Human), UniProt P41182)
Assay: Immunofluorescence high content imaging of BCL6 degradation in T47D cells
Assay type: cell-based
Conditions: class symbols A-D, read-out: EC50 (nM)*

| COMPOUND | DC50 |
| --- | --- |
| CC(=O)COc1cc2cc(Nc3nc(N4CCC(OCCN5CCN(c6ccc7c(c6)CN(C6CCC(=O)NC6=O)C7=O)CC5)CC4)ncc3Cl)ccc2n(C)c1=O (centres unmarked) [compound 128] | < 10 nM |
| CNC(=O)COc1cc2cc(Nc3nc(N4CCC(OCCOCCOCCOCCCOc5ccc6c(c5)CN(C5CCC(=O)NC5=O)C6=O)CC4)ncc3Cl)ccc2n(C)c1=O (centres unmarked) [compound 168] | > 100 nM |
| CNC(=O)COc1cc2cc(Nc3nc(N4CCC(c5cn(CCOCCOCCOc6ccc7c(c6)C(=O)N(C6CCC(=O)NC6=O)C7=O)nn5)CC4)ncc3Cl)ccc2n(C)c1=O (centres unmarked) [compound 120] | 50 to 100 nM |
| CNC(=O)COc1cc2cc(Nc3nc(N4CCC(c5ccc(OCCCOCCOCCOc6ccc7c(c6)CN(C6CCC(=O)NC6=O)C7=O)cc5)CC4)ncc3Cl)ccc2n(C)c1=O (centres unmarked) [compound 89] | > 100 nM |
| CN1C(=O)CCc2cc(Nc3cc(N4CCC(CN5CCN(c6ccc7c(c6)C(=O)N(C6CCC(=O)NC6=O)C7=O)CC5)CC4)c([N+](=O)[O-])cc3Cl)ccc21 (centres unmarked) [compound 77] | > 100 nM |
| CNC(=O)COc1cc2cc(Nc3nc(N4CCC(OCCOCCOCCOCCOc5ccccc5Oc5ccc6c(c5)CN(C5CCC(=O)NC5=O)C6=O)CC4)ncc3Cl)ccc2n(C)c1=O (centres unmarked) [compound 134] | > 100 nM |
| CNC(=O)COc1cc2cc(Nc3nc(N4CCC(OCCOCCOCCOCCCOc5ccccc5-c5ccc6c(c5)CN(C5CCC(=O)NC5=O)C6=O)CC4)ncc3Cl)ccc2n(C)c1=O (centres unmarked) [compound 93] | > 100 nM |
| CNC(=O)COc1cc2cc(Nc3nc(N4CCC(c5cn(CCOCCOc6ccc7c(c6)C(=O)N(C6CCC(=O)NC6=O)C7=O)nn5)CC4)ncc3Cl)ccc2n(C)c1=O (centres unmarked) [compound 107] | 10 to 50 nM |
| CNC(=O)COc1cc2cc(Nc3nc(N4CCC(OCCOCCOCCOCCOc5ccc6c(c5)CN(C5CCC(=O)NC5=O)C6=O)CC4)ncc3Cl)ccc2n(C)c1=O (centres unmarked) [compound 59] | > 100 nM |
| CC(=O)COc1cc2cc(Nc3nc(N4CCC(N5CCC(N(C)CCOc6ccc7c(c6)CN(C6CCC(=O)NC6=O)C7=O)C5)CC4)ncc3Cl)ccc2n(C)c1=O (centres unmarked) [compound 157] | 10 to 50 nM |
| CNC(=O)COc1cc2cc(Nc3nc(N4CCC(OCCOCCOCCOCCOc5cccc(-c6ccc7c(c6)CN(C6CCC(=O)NC6=O)C7=O)c5)CC4)ncc3Cl)ccc2n(C)c1=O (centres unmarked) [compound 109] | > 100 nM |

###

Biological target: BCL6 (Homo sapiens (Human))
Experiment: Immunofluorescence high content imaging of BCL6 degradation in T47D cells
Type: cell-based
Conditions: class symbols A-D, read-out: EC50 (nM)*
Method: Immunofluorescence Protocol for High Cotent Imaging of BCL6 T47D cells were seeded in 100 μl volume of RPMI1640-10% FBS in a 96-well black/clear bottom plates for adherent lines (Corning #3904). Day 1. T47D breast cancer epithelial cells were seeded at a density so that confluence is ˜70-90% at endpoint. Cells were seeded at 7K/0.1 ml/well the morning prior to the addition of exemplary bifunctional degradation compounds. Day 2. […] Plates were equilibrated to room temperature prior to reading. […]
Each record here notes measured DC50.
METRIC NAME: DC50

| COMPOUND | MEASUREMENT |
| --- | --- |
| CNC(=O)COc1cc2cc(Nc3nc(N4CCC(OCCOCCOCCOCCc5cccc(Oc6ccc7c(c6)CN(C6CCC(=O)NC6=O)C7=O)c5)CC4)ncc3Cl)ccc2n(C)c1=O (stereo not drawn) [compound 126] | > 100 nM |
| CNC(=O)COc1cc2cc(Nc3nc(N4CCC(OCCOCCOCCOCC(=O)N[C@H](C(=O)N5C[C@H](O)C[C@H]5C(=O)NCc5ccc(-c6scnc6C)cc5)C(C)(C)C)CC4)ncc3Cl)ccc2n(C)c1=O [compound 51] | > 100 nM |
| CNC(=O)COc1cc2cc(Nc3nc(N4CCC(Oc5cccc(OCCCCOCCOCCOc6ccc7c(c6)CN(C6CCC(=O)NC6=O)C7=O)c5)CC4)ncc3Cl)ccc2n(C)c1=O (stereo not drawn) [compound 95] | > 100 nM |
